# Tested on: human Liver-Chip (hepatocyte layer)
# protocol.description: Liver-Chip immunofluorescence imaging (caspase 3/7, TMRM, AdipoRed/LipidTOX)
# Type: cell-based
# experimental.conditions: expanded drug list; donor 2
measurement.label: IF imaging Donor 2

The examples below pair each entry with its known result.
CC(C(=O)O)c1ccc2oc(-c3ccc(Cl)cc3)nc2c1 (stereo not drawn); Apoptosis
Nc1c2c(nc3ccccc13)CCCC2; Apoptosis
CC(c1cc2ccccc2s1)N(O)C(N)=O (stereo not drawn); No findings
CC(CCc1ccccc1)NCC(O)c1ccc(O)c(C(N)=O)c1 (stereo not drawn); Apoptosis

Next compound, IF imaging Donor 2 to be filled in.
What measured IF imaging Donor 2 goes with CCOC(=O)CN[C@@H](C(=O)N1CC[C@H]1C(=O)NCc1ccc(/C(N)=N\O)cc1)C1CCCCC1 ?
No findings

* * *

# Test system: human Liver-Chip (primary human hepatocytes)
# protocol.description: Liver-Chip alanine transaminase (ALT) release in top channel effluent (ELISA)
# Assay type: cell-based
# experimental.conditions: lowest concentration causing an increase in ALT protein; donor 1
measurement.label: ALT Donor 1

API: value(readout= ALT Donor 1, system= human Liver-Chip (primary human hepatocytes), query= Cc1cc2c(s1)Nc1ccccc1N=C2N1CCN(C)CC1 )
>300 multiples of the unbound human Cmax

Try the molecule CCN(CC)C(=O)/C(C#N)=C/c1cc(O)c(O)c([N+](=O)[O-])c1
>300 multiples of the unbound human Cmax

Same lookup for C[C@H]1COc2c(N3CCN(C)CC3)c(F)cc3c(=O)c(C(=O)O)cn1c23 , please.
>15 multiples of the unbound human Cmax

Moving on to the next molecule: Cc1cc2c(cc1CC(=O)c1sccc1S(=O)(=O)Nc1onc(C)c1Cl)OCO2
300 multiples of the unbound human Cmax

* * *

# Tested on: human Liver-Chip (primary human hepatocytes)
# protocol.description: Liver-Chip alanine transaminase (ALT) release in top channel effluent (ELISA)
# Assay type: cell-based
# experimental.conditions: lowest concentration causing an increase in ALT protein; donor 3
I'd be grateful if you could share measured ALT Donor 3 for these entries.

// query ALT Donor 3 value for entry COC(c1ccccc1)(c1ccccc1)[C@H](Oc1nc(C)cc(C)n1)C(=O)O
>300 multiples of the unbound human Cmax

Repeat with N[C@@H]1[C@H]2CN(c3nc4c(cc3F)c(=O)c(C(=O)O)cn4-c3ccc(F)cc3F)C[C@@H]12
30 multiples of the unbound human Cmax

Now consider Cc1cc2c(cc1CC(=O)c1sccc1S(=O)(=O)Nc1onc(C)c1Cl)OCO2 and answer again.
100 multiples of the unbound human Cmax

Would you kindly repeat that for Cc1cc2c(s1)Nc1ccccc1N=C2N1CCN(C)CC1 ?
>300 multiples of the unbound human Cmax

# repeat for C[C@H]1COc2c(N3CCN(C)CC3)c(F)cc3c(=O)c(C(=O)O)cn1c23
>45 multiples of the unbound human Cmax

* * *

# Test system: human Liver-Chip
# protocol.description: Liver-Chip DILI prediction: minimum toxic concentration and margin of safety (MOS)-like figure;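 note: Toxic concentration is the lowest across albumin IC50 and ALT and morphology endpoints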
# experimental.conditions: free IC50 concentration in the assay divided by total concentration of drug in human plasma at Cmax; donor 2
measurement.label: Chip MOS donor 2
# respond with the number and nothing more

Write down the reported Chip MOS donor 2 of Cc1cc2c(cc1CC(=O)c1sccc1S(=O)(=O)Nc1onc(C)c1Cl)OCO2 , test system: human Liver-Chip.
1.6

// repeat for Cc1cn([C@H]2C=C[C@@H](CO)O2)c(=O)[nH]c1=O and report
107

Also check Cc1ccc(C(=O)c2cc(O)c(O)c([N+](=O)[O-])c2)cc1
0.05

Also, CC(c1cc2ccccc2s1)N(O)C(N)=O (centres unmarked) please.
15

Also need CC(CCc1ccccc1)NCC(O)c1ccc(O)c(C(N)=O)c1 (centres unmarked) , thanks.
22

O=c1[nH]c(=O)n([C@@H]2O[C@H](CO)[C@@H](O)[C@@H]2F)cc1I [Fialuridine] , same question.
2.8
